Tested on: SF-539 CNS
protocol.summary: NCI tumour cell line growth inhibition, 48 h; in the data active means GI50 below about 0.43 µM; inactive means the rest
Field 'call' accepts 1 (yes) (active), 0 (no) (inactive)

O=c1oc2cc(OS(=O)(=O)c3ccccc3)ccc2c2c1CCCCC2; 0 (no)
C/C=C/C(=O)[O-].N.N.N.N.N.[Co+3].[O-][Cl+3]([O-])([O-])[O-]; 0 (no)
NC(=S)N/N=C\c1nccc2c(C(F)(F)C(F)(F)C(F)(F)F)cccc12; 1 (yes)

Q: Write down the call the test reported for this compound. Item: O=C(Nc1cccc([N+](=O)[O-])c1)c1cc2ccccc2cc1O
A: 0 (no)

Q: Write down the call the test reported for this compound. Item: CS(=O)(=O)Nc1cc(-c2ccc3ncnc(Nc4cccc(Cl)c4F)c3c2)cnc1Cl
A: 0 (no)

Q: Write down the call the test reported for this compound. Item: N#C/C(=C\c1cccnc1)c1nc2ccccc2o1
A: 0 (no)

Q: Write down the call the test reported for this compound. Item: O=C(Nc1ccc(-c2ccnc(Nc3ccc(N4CCOCC4)cc3)n2)cc1)C1CCCN1 (stereo not drawn)
A: 0 (no)

Q: Write down the call the test reported for this compound. Item: N#Cc1ccc2c(c1)C(=O)c1c-2n(CCCN=[N+]=[N-])c(=O)c2cc([N+](=O)[O-])ccc12
A: 0 (no)

====

Test system: SK-MEL-5 melanoma
protocol.summary: NCI tumour cell line growth inhibition, 48 h
In this section we review reported TGI values for a set of compounds.

Answered cases to consult:
CCCNc1cccc(-n2ncc3c(N/N=C/c4ccncc4)ncnc32)c1; > 25 µM
COc1ccc(NC(=S)NNC(=O)c2cc(-c3ccccc3)nc3ccccc23)cc1; 25.6 µM

Q: Which TGI value is on record for O=c1oc2ccccc2c(O)c1Cc1cccc(Cc2c(O)c3ccccc3oc2=O)c1 ?
A: > 100 µM

Q: Which TGI value is on record for COC(=O)/C(=N/O)C(C(=O)OC)C(=O)C(=O)Nc1c(Cl)cc(C)cc1S(=O)(=O)O (stereo not given) ?
A: > 100 µM

Q: Which TGI value is on record for N#Cc1ncc(N2C(=O)C3(CCC3)N(c3ccc(OC4CCNCC4)nc3)C2=S)cc1C(F)(F)F ?
A: 32 µM

Q: Which TGI value is on record for C/C(=C\CNc1nc(Cl)nc2nc[nH]c12)CO ?
A: > 100 µM

Q: Which TGI value is on record for C[C@@H]1OCC(O)C([C@H]2OC(c3ccccc3)=N[C@H]2CO)O1 (stereo not given in full) ?
A: > 100 µM

Q: Which TGI value is on record for CC(=O)Nc1ccc(/C=C(\NC(=O)c2ccccc2)C(=O)NNS(=O)(=O)c2ccc(C)cc2)cc1 ?
A: > 100 µM

Q: Which TGI value is on record for CC1(C)Oc2ccc3c(=O)c4ccccc4oc3c2C1C(=O)O (stereo not given) ?
A: > 100 µM

Q: Which TGI value is on record for CC1(C)O[C@@H](CP(c2cccc3ccccc23)c2cccc3ccccc23)[C@H](CP(c2cccc3ccccc23)c2cccc3ccccc23)O1 ?
A: > 100 µM

Q: Which TGI value is on record for c1ccc(COc2cccc3cccnc23)cc1 ?
A: > 100 µM

Q: Which TGI value is on record for CN/N=C(\C(=O)Nc1ccc([N+](=O)[O-])cc1[N+](=O)[O-])C1NC(=O)NC1=O (stereo not given) ?
A: > 100 µM

Q: Which TGI value is on record for Cc1ccc(/C=C2\CN(Cc3cn(CCNc4ccnc5cc(Cl)ccc45)nn3)C/C(=C\c3ccc(C)cc3)C2=O)cc1 ?
A: 3.12 µM
